Tested System: T1, SHANK1, Q9Y566
T1 sequence (Q9Y566 658-767, limits assumed, looked up): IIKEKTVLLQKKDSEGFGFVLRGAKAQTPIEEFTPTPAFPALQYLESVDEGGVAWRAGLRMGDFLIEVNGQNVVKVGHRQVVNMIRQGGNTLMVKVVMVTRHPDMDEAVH
Method Summary: holdup assay
Design: key: below the threshold = too weak to quantify, mostly under pKd 3.1 to 4
Settings: plain residues with an end cap or a label only (N-terminal biotin on a linker: ado-ado)
Endpoint Label: pKd

Binder	Endpoint Label	Reported Value
PSHPRLQTHV [KIRREL2, Q6UWL6]	pKd	3.84
PYPTADHMLA [JUP, P14923]	pKd	below the threshold
ARESQKVSHV [FAM110B, Q8TC76]	pKd	below the threshold
SVTSERETNI [SLC16A7, O60669]	pKd	below the threshold
MHIQEKGFHV [EPHA6, Q9UF33]	pKd	below the threshold
NNNVVKVDSV [MTNR1A, P48039]	pKd	below the threshold
TISFTQTSQF [SLC1A1, P43005]	pKd	4.61
QSGLYESEEL [MYOT, Q9UBF9]	pKd	3.72
